Target: ALK5 kinase (Homo sapiens)
Construct: GST; purchased Thermo Fisher Scientific Solutions
Sequence (P36897 34-503): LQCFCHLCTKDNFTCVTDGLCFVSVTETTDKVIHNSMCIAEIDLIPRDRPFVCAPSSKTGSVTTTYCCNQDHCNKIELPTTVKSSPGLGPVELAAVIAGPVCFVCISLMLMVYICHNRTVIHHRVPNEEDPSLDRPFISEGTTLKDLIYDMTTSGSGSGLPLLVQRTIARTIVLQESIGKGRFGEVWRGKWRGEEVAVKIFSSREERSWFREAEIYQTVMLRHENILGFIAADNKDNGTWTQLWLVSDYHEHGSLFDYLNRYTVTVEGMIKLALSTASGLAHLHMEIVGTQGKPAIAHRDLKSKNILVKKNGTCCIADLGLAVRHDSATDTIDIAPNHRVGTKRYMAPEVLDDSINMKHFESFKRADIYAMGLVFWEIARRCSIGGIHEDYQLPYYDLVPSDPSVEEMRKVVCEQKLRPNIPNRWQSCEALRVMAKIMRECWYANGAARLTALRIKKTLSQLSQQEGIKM
Test: Activity inhibition test on ALK5 enzyme (LanthaScreen Eu binding kinase assay)
Conditions: kinase tracer 178, 60 minutes at room temperature
MEASURED_PARAMETER: IC50

Consider the compound Cc1cccc(-n2nc(C(=O)Nc3cnn(C)c3)cc2-c2ccc(F)c(-c3cnn(CCO)c3)c2)n1 and give its measured IC50.
2.8 nM

Consider the compound Cc1cccc(NC(=O)c2cc(-c3ccc4ncsc4c3)n(-c3cccc(C)n3)n2)c1 and give its measured IC50.
10 to 100 nM

Consider the compound Cc1cccc(-n2nc(C(=O)Nc3ccc(S(=O)(=O)C4CC4)cc3)cc2-c2ccc3ncsc3c2)n1 and give its measured IC50.
4.4 nM

Consider the compound COc1ccccc1NC(=O)c1cc(-c2ccc3ncnn3c2)n(-c2cccc(C)n2)n1 [Example 90] and give its measured IC50.
5 nM

***
Consider the compound Cc1cccc(-n2nc(C(=O)Nc3ccc(Cl)cc3)cc2-c2ccc3nccnc3c2)n1 and give its measured IC50.
10 to 100 nM

Consider the compound Cc1cccc(-n2nc(C(=O)Nc3ccc(S(=O)(=O)C4CC4)cc3)cc2-c2ccc3ncoc3c2)n1 and give its measured IC50.
3.2 nM

Consider the compound Cc1cccc(-n2nc(C(=O)Nc3ccc(Cl)cc3)cc2-c2ccc(F)c(-c3cnn(CCO)c3)c2)n1 and give its measured IC50.
33 nM

Consider the compound Cc1cccc(-n2nc(C(=O)NCc3ccc(N(C)C)cc3)cc2-c2ccc3ncnn3c2)n1 and give its measured IC50.
10 to 100 nM

Consider the compound Cc1cccc(-n2nc(C(=O)Nc3ccccc3Cl)cc2-c2ccc3nccnc3c2)n1 and give its measured IC50.
100 to 1000 nM

Consider the compound COc1ccccc1NC(=O)c1cc(-c2ccc3ncnn3c2)n(-c2cccc(C)n2)n1 [Example 92] and give its measured IC50.
10 to 100 nM

Consider the compound Cc1cccc(-n2nc(C(=O)Nc3ccc(Br)cc3)cc2-c2ccc3ncnn3c2)n1 and give its measured IC50.
~10 nM

Consider the compound Cc1cccc(-n2nc(C(=O)Nc3ccc(NS(=O)(=O)C4CC4)cc3)cc2-c2ccc3ncsc3c2)n1 and give its measured IC50.
4.2 nM

Consider the compound CCCS(=O)(=O)c1ccc(NC(=O)c2cc(-c3ccc4ncnn4c3)n(-c3cccc(C)n3)n2)cc1 [Example 151] and give its measured IC50.
2.7 nM
